# tgt: UniProt:P32247
# Sequence (P32247 whole entry): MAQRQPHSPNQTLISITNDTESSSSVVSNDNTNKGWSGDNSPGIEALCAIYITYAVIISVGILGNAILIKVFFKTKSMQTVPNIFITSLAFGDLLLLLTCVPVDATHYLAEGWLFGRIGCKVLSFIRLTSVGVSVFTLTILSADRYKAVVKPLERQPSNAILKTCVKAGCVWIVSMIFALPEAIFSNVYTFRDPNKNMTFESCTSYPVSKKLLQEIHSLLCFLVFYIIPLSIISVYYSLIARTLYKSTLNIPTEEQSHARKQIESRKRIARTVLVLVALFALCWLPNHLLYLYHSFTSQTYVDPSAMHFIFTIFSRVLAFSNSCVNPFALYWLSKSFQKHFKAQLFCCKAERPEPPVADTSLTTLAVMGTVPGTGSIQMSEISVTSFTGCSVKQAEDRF
# protocolText: [3H]Inositol phosphate generation
# Format: cell-based
# runConditions: read-out: EC50 Human BRS-3 hBRS-3/BALB; [3H]IP production, 60 min, 37°C; listed as 9 F
resultType: pEC50
# pEC50 = -log10(concentration in molar units)

Input: Look up and report measured pEC50 for this entry: Cc1ccc(Oc2cccc(CC(=O)N3CCNc4nc(C(F)(F)F)ccc4[C@H]3CC(=O)O)c2)cn1 [9F]
Output: 7.40

---

# tgt: mouse NMBR (Mus musculus, UniProt O54799)
# Sequence (O54799 1-390): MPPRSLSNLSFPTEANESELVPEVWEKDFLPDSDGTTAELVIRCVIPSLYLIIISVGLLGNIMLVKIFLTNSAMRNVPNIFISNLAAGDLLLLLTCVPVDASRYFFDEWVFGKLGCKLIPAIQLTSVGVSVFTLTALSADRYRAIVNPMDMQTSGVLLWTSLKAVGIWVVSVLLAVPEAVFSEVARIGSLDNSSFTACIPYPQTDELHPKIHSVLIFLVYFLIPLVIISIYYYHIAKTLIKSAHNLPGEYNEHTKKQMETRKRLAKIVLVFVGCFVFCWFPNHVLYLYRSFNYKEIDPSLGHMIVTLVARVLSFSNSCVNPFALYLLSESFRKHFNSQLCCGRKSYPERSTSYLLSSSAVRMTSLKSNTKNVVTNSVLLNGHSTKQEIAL
# protocolText: [3H]Inositol phosphate generation, mNMBR/BALB cells
# Assay type: cell-based
# runConditions: read-out: EC50 Mouse NMBR mNMBR/BALB; [3H]IP production, 60 min, 37°C
pEC50: −log10 of the molar value.
Assign pEC50 to each entry below.

Input: Look up and report measured pEC50 for this entry: CC(C)COc1cccc(CC(=O)N2CCNc3nc(C(F)(F)F)ccc3[C@H]2CC(=O)O)c1 [9G]
Output: < 5.52

Input: Look up and report measured pEC50 for this entry: Cc1ccc(Oc2cccc(CC(=O)N3CCNc4nc(C(F)(F)F)ccc4[C@H]3CC(=O)O)c2)cn1 [9F]
Output: < 5.52
